These entries and their values trace back to PubChem BioAssay AID330.

System: P388 leukemia ip, CD2F1 mice, survival T/C
TEST METHOD NOTES: NCI In Vivo Anticancer Drug Screen. Data for tumor model P388 Leukemia (intraperitoneal) in CD2F1 (CDF1) mice
MEASUREMENT SETUP: endpoint: median survival time; dose: 100.0 mg/kg/injection; schedule: Q01DX009 (ip); vehicle: water
Toxic doses and inconclusive results are not listed. The calls were made as follows: active = survival T/C of 150% or more; inactive = T/C below 125% in these data.
Choose one outcome from this list and give only that: True for active, False for inactive

Below are worked cases with known answers.
COMPOUND: CCN(CC)C(=O)Nc1ccc(OCC(O)CNC(C)(C)C)c(C(C)=O)c1 (stereo not given)
CLASSIFICATION: False

COMPOUND: CN(C)CCOc1cccc2c1C(=O)c1ccccc1C2=O
CLASSIFICATION: False

COMPOUND: COc1cccc2c1C(=O)c1c(O)c3c(c(O)c1C2=O)C[C@@](O)(C(=O)O)C[C@@H]3OC1CC(N)C(O)C(C)O1 (stereo not given in full)
CLASSIFICATION: True

COMPOUND: COc1cc2cnccc2cc1O
CLASSIFICATION: False

With those in mind, consider the next compound.
## Input Just curious, what result did "COc1ccc(-c2nc(C)cc3cc(OC)c(OC)cc23)cc1OC" get here?
## Output False
